Test system: SiHa cells
Test: CellTiter96 MTS cell viability dose response, SiHa
Format: cell-based
Details: Homo sapiens
METRIC: IC50 (µM)
API: value field is a number in µM; no unit string.

Task: Specify IC50 for Cl.N=C(N)N1CCC[C@H]1Cc1nc(-c2ccc(Cn3cc(-c4ccc(C(F)(F)F)cc4)nn3)cc2)no1 [Compound 21b, hydrochloride] , system SiHa cells.
Output: 13

* * *

Target: UniProt Q9NRA0
Sequence (Q9NRA0 whole entry): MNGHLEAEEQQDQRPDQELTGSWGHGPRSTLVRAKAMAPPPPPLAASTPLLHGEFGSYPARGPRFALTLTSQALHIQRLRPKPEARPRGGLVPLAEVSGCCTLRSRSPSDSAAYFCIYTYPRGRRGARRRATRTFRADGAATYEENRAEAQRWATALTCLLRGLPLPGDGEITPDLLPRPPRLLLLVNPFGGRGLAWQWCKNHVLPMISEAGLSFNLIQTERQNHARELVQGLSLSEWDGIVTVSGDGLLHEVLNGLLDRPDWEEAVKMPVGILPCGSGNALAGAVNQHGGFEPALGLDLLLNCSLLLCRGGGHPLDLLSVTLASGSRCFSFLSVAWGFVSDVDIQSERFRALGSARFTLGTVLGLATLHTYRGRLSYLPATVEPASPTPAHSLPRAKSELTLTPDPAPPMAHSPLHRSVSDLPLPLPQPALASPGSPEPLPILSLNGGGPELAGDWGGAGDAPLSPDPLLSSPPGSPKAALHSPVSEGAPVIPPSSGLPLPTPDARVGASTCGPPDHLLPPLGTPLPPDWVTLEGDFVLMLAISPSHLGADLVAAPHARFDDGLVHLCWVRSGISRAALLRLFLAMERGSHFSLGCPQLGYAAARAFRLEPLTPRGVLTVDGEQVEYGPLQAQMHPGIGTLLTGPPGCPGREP
Assay: ADP-Glo kinase assay, SphK2
Assay type: biochemical
Settings: 125 μM of each compound, SphK2 versus SphK1, FIG. 5
Structures can show the parent of a compound that is named as a salt.
METRIC: selectivity/specificity for SphK2 over SphK1

COMPOUND	READOUT VALUE
Cl.N=C(N)C1(c2nc(-c3ccc(Cn4cc(-c5ccccc5)nn4)cc3)no2)CC1 [Compound 29a]	highly selective
Cl.N=C(N)N1CCC[C@H]1c1nc(-c2ccc(Cn3cc(C4CC4)nn3)cc2)no1 [Compound 25h]	high selective
CCCCc1cn(Cc2ccc(-c3noc([C@@H]4CCCN4C(=N)N)n3)cc2)nn1.Cl [Compound 25f]	high selective
Cn1cc(-c2cn(Cc3ccc(-c4noc(C5(C(=N)N)CC5)n4)cc3)nn2)cn1 [Compound 29b, hydrochloride]	highly selective
